Overview of recorded Activity range for various compounds
Test system: Staphylococcus aureus SG 511 M6
ASSAY SUMMARY: Microbiological test
Type: cell-based
VALUE TYPE: Activity range (ppm)

chemical_string=CCC[CH2][Sn]([CH2]CCC)([CH2]CCC)[S]CC(=O)N(CCO)CCO recorded_value=3
chemical_string=CCC[CH2][Sn]([CH2]CCC)([CH2]CCC)[S]CC(=O)[O-].OCC[NH+](CCO)CCO recorded_value=30
chemical_string=CCC[CH2][Sn]([CH2]CCC)([CH2]CCC)[S]CCC(=O)[O-].OCC[NH+](CCO)CCO recorded_value=30
chemical_string=O=S(=O)([O-])CCC[S][Sn]([c]1ccccc1)([c]1ccccc1)[c]1ccccc1.[Na+] recorded_value=10

====

Tested on: Penicillium expansum SMC 36
ASSAY SUMMARY: Microbiological test
Type: cell-based
The following molecules are shown together with reported Activity range values.
VALUE TYPE: Activity range (ppm)

molecule="O=S(=O)([O-])CCC[S][Sn]([c]1ccccc1)([c]1ccccc1)[c]1ccccc1.[Na+] [Compound 2]" value_type="Activity range" recorded_value=30
molecule="CCC[CH2][Sn]([CH2]CCC)([CH2]CCC)[S]CCC(=O)[O-].OCC[NH+](CCO)CCO [Compound 5]" value_type="Activity range" recorded_value=10
molecule="CCC[CH2][Sn]([CH2]CCC)([CH2]CCC)[S]CC(=O)[O-].OCC[NH+](CCO)CCO [Compound 4]" value_type="Activity range" recorded_value=10
molecule="CCC[CH2][Sn]([CH2]CCC)([CH2]CCC)[S]CC(=O)N(CCO)CCO [Compound 6]" value_type="Activity range" recorded_value=10

====

Test system: Candida albicans CBS
ASSAY SUMMARY: Microbiological test
Format: cell-based
VALUE TYPE: Activity range (ppm)

chemical_string=CCC[CH2][Sn]([CH2]CCC)([CH2]CCC)[S]CCC(=O)[O-].OCC[NH+](CCO)CCO recorded_value=10
chemical_string=CCC[CH2][Sn]([CH2]CCC)([CH2]CCC)[S]CC(=O)[O-].OCC[NH+](CCO)CCO recorded_value=10
chemical_string=CCC[CH2][Sn]([CH2]CCC)([CH2]CCC)[S]CC(=O)N(CCO)CCO recorded_value=10
chemical_string=O=S(=O)([O-])CCC[S][Sn]([c]1ccccc1)([c]1ccccc1)[c]1ccccc1.[Na+] recorded_value=30

====

Examples of compounds with documented Activity range follow.
System: Chaetomium globosum CBS 14851
ASSAY SUMMARY: Microbiological test
Assay type: cell-based
VALUE TYPE: Activity range (ppm)

chemical_string=CCC[CH2][Sn]([CH2]CCC)([CH2]CCC)[S]CCC(=O)[O-].OCC[NH+](CCO)CCO censor_symbol=≤ recorded_value=3
chemical_string=CCC[CH2][Sn]([CH2]CCC)([CH2]CCC)[S]CC(=O)N(CCO)CCO censor_symbol=≤ recorded_value=3
chemical_string=O=S(=O)([O-])CCC[S][Sn]([c]1ccccc1)([c]1ccccc1)[c]1ccccc1.[Na+] censor_symbol== recorded_value=10
chemical_string=CCC[CH2][Sn]([CH2]CCC)([CH2]CCC)[S]CC(=O)[O-].OCC[NH+](CCO)CCO censor_symbol== recorded_value=10
